Origin of measurements: patent US8273774B2

- Target of assay: recombinant Human Phosphodiesterase B2 (PDE4B2) (Homo sapiens, UniProt Q07343)
- Sequence (Q07343 1-564 isoform Q07343-2): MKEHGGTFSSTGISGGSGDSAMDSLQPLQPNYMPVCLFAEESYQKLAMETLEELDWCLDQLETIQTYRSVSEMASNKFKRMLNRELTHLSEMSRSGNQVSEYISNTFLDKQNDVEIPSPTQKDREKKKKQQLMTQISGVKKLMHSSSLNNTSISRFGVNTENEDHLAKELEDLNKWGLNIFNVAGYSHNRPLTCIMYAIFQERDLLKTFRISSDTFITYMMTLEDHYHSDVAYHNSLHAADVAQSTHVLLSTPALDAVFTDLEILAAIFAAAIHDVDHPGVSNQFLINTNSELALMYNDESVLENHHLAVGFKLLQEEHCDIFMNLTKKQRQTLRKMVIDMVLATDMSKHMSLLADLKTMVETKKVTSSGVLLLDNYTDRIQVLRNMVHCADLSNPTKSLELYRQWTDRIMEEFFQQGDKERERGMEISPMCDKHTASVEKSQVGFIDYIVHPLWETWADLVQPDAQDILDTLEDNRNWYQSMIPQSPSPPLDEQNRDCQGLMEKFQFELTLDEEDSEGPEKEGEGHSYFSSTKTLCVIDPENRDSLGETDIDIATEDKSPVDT
- Procedure text: Human Phosphodiesterase B2 Radiometric Assay
- Assay type: biochemical
- Protocol conditions: 0.1 μg/mL recombinant PDE4B2; preincubated at 30 C for 30 min; [3H]cyclic AMP 8 nM, stopped after 20 min; yttrium silicate SPA beads; read-out: PDE4B2 pIC50 (converted)
Measured endpoint: IC50 (nM)

[
  {
    "Compound": "O=C(N[C@H]1CC[C@@H](NC(=O)c2cc(F)cnc2Oc2cccc(-c3ccc(CCCN4CCNCC4)cc3)c2)CC1)c1cc2n(n1)CCC2",
    "IC50 [nM]": 0.0501
  },
  {
    "Compound": "Cc1csc(C(=O)N[C@H]2CC[C@@H](NC(=O)c3cc(F)cnc3Oc3cccc(-c4ccc(O)cc4CN4CCOCC4)c3)CC2)n1",
    "IC50 [nM]": 0.0158
  },
  {
    "Compound": "Cc1csc(C(=O)N[C@H]2CC[C@@H](NC(=O)c3cc(F)cnc3Oc3cccc(-c4ccc(O)c(CN5C[C@@H](C)N[C@@H](C)C5)c4)c3)CC2)n1",
    "IC50 [nM]": 0.0316
  }
]

1. O=C(NC1CCC(NC(=O)c2cc(F)cnc2Oc2cccc(-c3ccc(CCCN4CCNCC4)cc3)c2)CC1)c1nc(CO)cs1 (centres unmarked)
2. Cc1csc(C(=O)N[C@H]2CC[C@@H](NC(=O)c3cc(F)cnc3Oc3cccc(-c4ccc(CN5C[C@@H](C)N[C@@H](C)C5)cc4CN4CCOCC4)c3)CC2)n1
Challenge: Field: entry with larger IC50 (options 1 / 2 ). Refer to your chosen item by its label in the answer.
Response given: 1

###

- Target of assay: recombinant Human Phosphodiesterase B2 (PDE4B2) (Homo sapiens, UniProt Q07343)
- Procedure text: Human Phosphodiesterase B2 Radiometric Assay
- Assay type: biochemical
- Protocol conditions: 0.1 μg/mL recombinant PDE4B2; preincubated at 30 C for 30 min; [3H]cyclic AMP 8 nM, stopped after 20 min; yttrium silicate SPA beads; read-out: PDE4B2 pIC50 (converted)
Structures can show the parent of a compound that is named as a salt.
Measured endpoint: IC50 (nM)

Examples from the recorded data:
[
  {
    "Compound": "O=C(N[C@H]1CC[C@@H](NC(=O)c2cc(F)cnc2Oc2cccc(-c3ccc(O)cc3CN3CCOCC3)c2)CC1)c1csc(C(F)(F)F)n1 [Example 36]",
    "Target of assay": "recombinant Human Phosphodiesterase B2 (PDE4B2) (Homo sapiens, UniProt Q07343)",
    "Measurement unit": "nM",
    "IC50": 0.1
  },
  {
    "Compound": "Cc1nc(C(=O)N[C@H]2CC[C@@H](NC(=O)c3cc(F)cnc3Oc3cccc(-c4ccc(CN5C[C@@H](C)N[C@@H](C)C5)cc4CN4CCSCC4)c3)CC2)cs1 [Example 189]",
    "Target of assay": "recombinant Human Phosphodiesterase B2 (PDE4B2) (Homo sapiens, UniProt Q07343)",
    "Measurement unit": "nM",
    "IC50": 0.0158
  },
  {
    "Compound": "CN(C)CCN(C)Cc1ccc(-c2cccc(Oc3ncc(F)cc3C(=O)N[C@H]3CC[C@@H](NC(=O)c4cc5n(n4)CCCC5)CC3)c2)cc1 [Example 110, hydrochloride]",
    "Target of assay": "recombinant Human Phosphodiesterase B2 (PDE4B2) (Homo sapiens, UniProt Q07343)",
    "Measurement unit": "nM",
    "IC50": 0.2
  },
  {
    "Compound": "Cc1cccc2nc(C(=O)N[C@H]3CC[C@@H](NC(=O)c4cc(F)cnc4Oc4cccc(-c5ccc(CN6C[C@@H](C)N[C@@H](C)C6)cc5)c4)CC3)cn12 [Example 48]",
    "Target of assay": "recombinant Human Phosphodiesterase B2 (PDE4B2) (Homo sapiens, UniProt Q07343)",
    "Measurement unit": "nM",
    "IC50": 0.0631
  },
  {
    "Compound": "O=C(N[C@H]1CC[C@@H](NC(=O)c2cc(F)cnc2Oc2cccc(-c3ccc(O)cc3CN3CCOCC3)c2)CC1)c1csc(CO)n1 [Example 58]",
    "Target of assay": "recombinant Human Phosphodiesterase B2 (PDE4B2) (Homo sapiens, UniProt Q07343)",
    "Measurement unit": "nM",
    "IC50": 0.0631
  },
  {
    "Compound": "Cc1ccc(O)c(C(=O)N[C@H]2CC[C@@H](NC(=O)c3cc(F)cnc3Oc3cccc(-c4ccc(O)c(CN5C[C@@H](C)N[C@@H](C)C5)c4)c3)CC2)c1 [Example 95]",
    "Target of assay": "recombinant Human Phosphodiesterase B2 (PDE4B2) (Homo sapiens, UniProt Q07343)",
    "Measurement unit": "nM",
    "IC50": 0.2
  }
]

1. Cc1cc(C)n2ncc(C(=O)N[C@H]3CC[C@@H](NC(=O)c4cc(F)cnc4Oc4cccc(-c5ccc(CN6C[C@@H](C)N[C@@H](C)C6)cc5CN5CCSCC5)c4)CC3)c2n1 [Example 193]
2. CC(C)c1nc(C(=O)N[C@H]2CC[C@@H](NC(=O)c3cc(F)cnc3Oc3cccc(-c4ccc(O)c(CN5C[C@@H](C)N[C@@H](C)C5)c4)c3)CC2)cs1 [Example 90]
Challenge: Field: entry with larger IC50 (options 1 / 2 ). Refer to your chosen item by its label in the answer.
Response given: 2

1. Cc1nc(C(=O)N[C@H]2CC[C@@H](NC(=O)c3cc(F)cnc3Oc3cccc(-c4ccc(CCCN5CCCC5)cc4)c3)CC2)cs1 [Example 73]
2. Cc1cccc2nc(C(=O)N[C@H]3CC[C@@H](NC(=O)c4cc(F)cnc4Oc4cccc(-c5ccc(CCCN6CCNCC6)cc5)c4)CC3)cn12 [Example 93]
3. Cc1csc(C(=O)N[C@H]2CC[C@@H](NC(=O)c3cc(F)cnc3Oc3cccc(-c4ccc(CCN5CCNCC5)cc4)c3)CC2)n1 [Example 184]
Challenge: Sort by IC50, descending. Ranked list of labels, please, in the requested order.
Response given: 2, 1, 3
(2: 0.1 nM, 1: 0.0631 nM, 3: 0.0398 nM)
